# target_under_test: CAv1.2 (Homo sapiens, UniProt Q13936)
# Sequence (Q13936 whole entry): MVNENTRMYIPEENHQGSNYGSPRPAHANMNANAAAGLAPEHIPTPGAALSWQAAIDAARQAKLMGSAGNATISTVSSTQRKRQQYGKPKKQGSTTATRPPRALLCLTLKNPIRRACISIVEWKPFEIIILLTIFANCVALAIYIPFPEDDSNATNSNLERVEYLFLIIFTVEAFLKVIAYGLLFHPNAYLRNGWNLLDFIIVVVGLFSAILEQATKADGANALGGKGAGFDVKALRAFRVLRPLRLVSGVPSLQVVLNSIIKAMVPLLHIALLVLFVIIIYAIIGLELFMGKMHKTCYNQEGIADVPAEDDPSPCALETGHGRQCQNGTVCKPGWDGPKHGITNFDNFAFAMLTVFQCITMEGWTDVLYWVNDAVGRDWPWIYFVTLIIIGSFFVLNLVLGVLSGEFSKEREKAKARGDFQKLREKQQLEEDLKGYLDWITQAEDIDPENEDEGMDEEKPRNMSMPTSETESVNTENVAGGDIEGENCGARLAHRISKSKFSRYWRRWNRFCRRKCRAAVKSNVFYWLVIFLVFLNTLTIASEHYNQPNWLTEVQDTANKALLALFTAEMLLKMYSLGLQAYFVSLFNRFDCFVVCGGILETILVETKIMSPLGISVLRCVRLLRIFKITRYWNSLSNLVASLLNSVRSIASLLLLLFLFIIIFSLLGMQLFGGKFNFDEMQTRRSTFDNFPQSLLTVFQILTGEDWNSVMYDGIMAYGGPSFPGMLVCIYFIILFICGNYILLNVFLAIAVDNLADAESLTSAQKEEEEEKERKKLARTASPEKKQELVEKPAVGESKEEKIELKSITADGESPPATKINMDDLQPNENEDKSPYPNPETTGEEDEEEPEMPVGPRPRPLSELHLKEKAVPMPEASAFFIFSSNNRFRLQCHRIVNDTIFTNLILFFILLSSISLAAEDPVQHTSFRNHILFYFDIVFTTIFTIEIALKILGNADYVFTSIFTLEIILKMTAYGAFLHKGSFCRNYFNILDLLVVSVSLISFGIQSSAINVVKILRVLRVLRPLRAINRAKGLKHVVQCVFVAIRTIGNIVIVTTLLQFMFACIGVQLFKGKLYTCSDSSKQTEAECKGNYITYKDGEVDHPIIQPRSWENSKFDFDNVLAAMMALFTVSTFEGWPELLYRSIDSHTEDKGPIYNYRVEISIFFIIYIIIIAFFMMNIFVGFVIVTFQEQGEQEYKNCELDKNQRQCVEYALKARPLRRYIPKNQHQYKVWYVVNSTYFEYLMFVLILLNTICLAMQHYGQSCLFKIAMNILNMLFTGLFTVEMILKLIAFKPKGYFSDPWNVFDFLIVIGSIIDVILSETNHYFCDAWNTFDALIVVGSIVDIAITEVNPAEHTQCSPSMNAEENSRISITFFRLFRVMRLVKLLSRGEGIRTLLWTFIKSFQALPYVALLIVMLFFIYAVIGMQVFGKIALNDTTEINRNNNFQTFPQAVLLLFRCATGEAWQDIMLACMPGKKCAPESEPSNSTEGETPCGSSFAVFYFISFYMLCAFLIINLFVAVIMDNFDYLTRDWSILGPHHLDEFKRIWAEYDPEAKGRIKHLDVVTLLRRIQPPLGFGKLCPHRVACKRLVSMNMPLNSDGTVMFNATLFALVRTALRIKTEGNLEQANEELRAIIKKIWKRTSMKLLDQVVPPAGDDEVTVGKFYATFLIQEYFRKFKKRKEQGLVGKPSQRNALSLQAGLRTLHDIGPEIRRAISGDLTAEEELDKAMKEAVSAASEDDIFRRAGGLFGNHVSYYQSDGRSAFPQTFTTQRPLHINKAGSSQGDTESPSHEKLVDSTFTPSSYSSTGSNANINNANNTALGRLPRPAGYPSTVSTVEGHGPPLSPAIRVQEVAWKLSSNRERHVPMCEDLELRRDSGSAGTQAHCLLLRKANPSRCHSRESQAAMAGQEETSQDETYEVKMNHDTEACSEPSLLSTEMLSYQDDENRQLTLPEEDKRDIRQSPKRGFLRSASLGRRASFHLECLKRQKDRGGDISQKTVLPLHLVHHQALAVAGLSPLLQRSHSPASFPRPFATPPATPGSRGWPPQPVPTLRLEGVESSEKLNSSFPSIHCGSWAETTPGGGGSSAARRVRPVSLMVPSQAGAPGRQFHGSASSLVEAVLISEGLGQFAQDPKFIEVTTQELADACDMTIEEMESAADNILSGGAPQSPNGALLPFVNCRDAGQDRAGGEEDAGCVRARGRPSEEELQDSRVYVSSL
# Sequence (P54289 25-1103 partner): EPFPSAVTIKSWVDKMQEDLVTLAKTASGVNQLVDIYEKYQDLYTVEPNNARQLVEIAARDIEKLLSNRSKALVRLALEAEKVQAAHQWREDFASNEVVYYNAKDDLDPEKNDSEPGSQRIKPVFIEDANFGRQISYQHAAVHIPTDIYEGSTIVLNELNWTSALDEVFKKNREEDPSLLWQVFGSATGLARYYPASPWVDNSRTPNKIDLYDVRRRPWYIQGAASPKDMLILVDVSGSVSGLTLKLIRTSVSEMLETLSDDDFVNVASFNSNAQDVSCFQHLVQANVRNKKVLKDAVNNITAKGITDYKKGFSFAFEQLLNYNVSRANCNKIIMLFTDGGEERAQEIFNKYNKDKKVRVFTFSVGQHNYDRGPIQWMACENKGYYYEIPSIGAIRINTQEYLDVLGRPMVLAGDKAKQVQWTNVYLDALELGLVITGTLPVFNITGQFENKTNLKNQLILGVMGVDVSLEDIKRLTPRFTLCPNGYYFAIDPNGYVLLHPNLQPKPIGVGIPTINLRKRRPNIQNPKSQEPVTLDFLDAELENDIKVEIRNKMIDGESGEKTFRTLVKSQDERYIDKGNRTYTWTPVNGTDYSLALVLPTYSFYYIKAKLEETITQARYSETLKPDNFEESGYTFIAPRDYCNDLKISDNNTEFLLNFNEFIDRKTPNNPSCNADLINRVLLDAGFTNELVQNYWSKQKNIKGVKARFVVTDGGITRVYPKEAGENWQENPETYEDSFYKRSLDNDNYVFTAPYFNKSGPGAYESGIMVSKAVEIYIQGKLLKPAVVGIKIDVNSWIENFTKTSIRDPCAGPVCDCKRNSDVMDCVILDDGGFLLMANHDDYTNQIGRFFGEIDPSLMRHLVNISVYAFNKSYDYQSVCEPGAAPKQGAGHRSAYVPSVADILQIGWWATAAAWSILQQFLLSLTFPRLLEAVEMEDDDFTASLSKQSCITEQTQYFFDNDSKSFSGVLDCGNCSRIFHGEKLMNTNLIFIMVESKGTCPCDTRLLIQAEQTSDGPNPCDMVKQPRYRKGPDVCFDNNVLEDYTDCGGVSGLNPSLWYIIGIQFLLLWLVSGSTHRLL
# Sequence (Q08289 whole entry partner): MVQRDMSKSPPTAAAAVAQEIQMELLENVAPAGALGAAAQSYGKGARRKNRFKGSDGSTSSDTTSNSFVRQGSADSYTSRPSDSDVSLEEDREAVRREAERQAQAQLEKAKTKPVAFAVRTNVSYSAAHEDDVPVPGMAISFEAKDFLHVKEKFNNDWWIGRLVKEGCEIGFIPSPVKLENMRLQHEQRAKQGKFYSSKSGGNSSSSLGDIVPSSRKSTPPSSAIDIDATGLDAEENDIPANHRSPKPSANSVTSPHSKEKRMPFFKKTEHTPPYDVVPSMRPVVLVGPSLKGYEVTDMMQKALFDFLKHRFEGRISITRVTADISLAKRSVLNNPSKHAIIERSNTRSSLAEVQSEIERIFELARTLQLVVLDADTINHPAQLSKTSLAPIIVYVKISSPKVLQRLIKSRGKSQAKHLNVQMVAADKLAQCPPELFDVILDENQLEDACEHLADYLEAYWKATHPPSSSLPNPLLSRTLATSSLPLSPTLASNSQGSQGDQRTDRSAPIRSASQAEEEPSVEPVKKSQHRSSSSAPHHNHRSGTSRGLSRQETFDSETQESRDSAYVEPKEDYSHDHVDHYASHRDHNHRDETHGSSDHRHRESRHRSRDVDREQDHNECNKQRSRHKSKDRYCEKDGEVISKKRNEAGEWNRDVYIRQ
# assay: FLIPR data, CAv1.2 channel blocking (Table 6)
# Assay type: cell-based
# recorded_conditions: closed state, read-out: CAv1.2 IC50 Closed
quantity_kind: IC50

# input Any idea what IC50 was measured for CC(C)(C1CC(CNC(=O)c2ccc(Cl)c(F)c2)C1)S(=O)(=O)c1cccc(C(F)(F)F)c1 (centres unmarked) ?
# output 4.05 µM

# input Record request: IC50 value, item `CC(C)([C@H]1C[C@@H](CNC(=O)c2ncc(C(F)(F)F)cn2)C1)S(=O)(=O)c1cccc(C(F)(F)F)c1`
# output ≥ 10 µM

# input IC50 for `CC(C)(C[C@H]1C[C@H](NC(=O)c2cnc(C(F)(F)F)nc2)C1)S(=O)(=O)c1cccc(C(F)(F)F)c1` ?
# output ≥ 10 µM

# input Which value of IC50 has been reported for `CC(C)(C[C@H]1C[C@@H](NC(=O)c2ncc(C(F)(F)F)cc2S(C)(=O)=O)C1)S(=O)(=O)c1cccc(C(F)(F)F)c1` in the records?
# output ≥ 10 µM

# input Please give the measured IC50 for this compound: `Cn1nc(C(F)(F)F)cc1C(=O)N[C@H]1C[C@H](CC(C)(C)S(=O)(=O)c2cccc(C(F)(F)F)c2)C1`
# output 6.7 µM

# input Recorded IC50 for `CC(C)([C@H]1C[C@H](NC(=O)c2ccc(F)c(Cl)c2)C1)S(=O)(=O)c1cc(F)cc(C(F)(F)F)c1` , please?
# output 3.7 µM

# input // IC50 lookup, key: `Cc1nc(S(=O)(=O)N[C@H]2C[C@H](C(C)(C)S(=O)(=O)c3cc(F)cc(C(F)(F)F)c3)C2)cn1C`
# output ≥ 10 µM

# input Form field: reported IC50 of `CC(C)(C[C@H]1C[C@H](NC(=O)c2ccc(C(F)(F)F)cc2)C1)S(=O)(=O)c1cccc(C(F)(F)F)c1`
# output 2.73 µM

# input Returns the measured IC50 for the input compound. Input: `CC(C)([C@H]1C[C@H](NC(=O)c2ccc(F)c(Cl)c2)C1)S(=O)(=O)c1cccc(OC(F)(F)F)c1`
# output 5.92 µM

# input Record request: IC50 value, item `CC(C)([C@H]1C[C@@H](NS(=O)(=O)c2ccc(F)c(C(F)(F)F)c2)C1)S(=O)(=O)c1cc(F)cc(C(F)(F)F)c1`
# output 8.84 µM

# input compound: `CC(C)([C@H]1C[C@@H](NS(=O)(=O)c2ccc(F)c(Cl)c2)C1)S(=O)(=O)c1cc(F)cc(C(F)(F)F)c1` ; wanted: its IC50
# output 8.85 µM

# input Name the reported IC50 value associated with the compound `CC(C)([C@H]1C[C@@H](NS(=O)(=O)c2ccc(OC(F)(F)F)cc2)C1)S(=O)(=O)c1cc(F)cc(C(F)(F)F)c1`
# output 6.92 µM

# input Suppose we examine the compound `CC(C)([C@H]1C[C@@H](NC(=O)c2ccc(C(F)(F)F)nc2)C1)S(=O)(=O)c1cccc(C(F)(F)F)c1` ; what IC50 value has been reported?
# output ≥ 10 µM

# input // lookup IC50 for O=C(NC[C@H]1C[C@H](S(=O)(=O)c2cccc(OC(F)(F)F)c2)C1)c1ccc(OCC(F)(F)F)nc1 [Compound 698]
# output 5.6 µM

# input Quick one: IC50 of `CC(C)([C@H]1C[C@@H](NC(=O)CC2(N)CCCCC2)C1)S(=O)(=O)c1cccc(OC(F)(F)F)c1` ?
# output ≥ 10 µM

# input I would be grateful if you could share the reported IC50 for `CNC1(CC(=O)N[C@H]2C[C@@H](C(C)(C)S(=O)(=O)c3cccc(C(F)(F)F)c3)C2)CCCCC1` .
# output ≥ 10 µM

# input GET /values?readout=IC50&item= `CNC1(CC(=O)NCc2ccc(S(=O)(=O)c3cccc(C(F)(F)F)c3)cc2)CCCCC1`
# output 7.48 µM

# input What does the record list as IC50 for `CC(C)([C@H]1C[C@H](NC(=O)CC2(N)CCCCC2)C1)S(=O)(=O)c1cc(F)cc(C(F)(F)F)c1` ?
# output ≥ 10 µM

# input Item under review: `CC(C)([C@H]1C[C@H](NC(=O)c2ccnc(C(F)(F)F)n2)C1)S(=O)(=O)c1cc(F)cc(C(F)(F)F)c1` . Reported IC50?
# output ≥ 10 µM

# input Reported IC50 for `O=C(NC[C@H]1C[C@H](S(=O)(=O)c2cccc(C(F)(F)F)c2)C1)c1ccc(Cl)cn1` : what is it?
# output ≥ 10 µM

# input Can you look up the measured IC50 of `O=C(NC[C@H]1C[C@H](S(=O)(=O)c2cc(F)cc(C(F)(F)F)c2)C1)c1cnc(C(F)(F)F)nc1` for me?
# output ≥ 10 µM

# input State the recorded IC50 for this entry: `CC(C)([C@H]1C[C@@H](NC(=O)c2ccc(Cl)cc2S(C)(=O)=O)C1)S(=O)(=O)c1cccc(C(F)(F)F)c1`
# output ≥ 10 µM

# input Endpoint output: IC50 of `CC(C)([C@H]1C[C@H](NS(=O)(=O)c2ccc(C(F)(F)F)cc2Cl)C1)S(=O)(=O)c1cccc(C(F)(F)F)c1` . Value?
# output ≥ 10 µM

# input # get_value(readout='IC50', item= `CC(C)([C@H]1C[C@@H](NC(=O)c2ccc(OCC(F)(F)F)nc2)C1)S(=O)(=O)c1cccc(C(F)(F)F)c1` )
# output 5.77 µM

# input What value of IC50 has been reported for the following compound? `CC(C)(C[C@H]1C[C@H](NC(=O)c2ccc(Cl)cn2)C1)S(=O)(=O)c1cccc(C(F)(F)F)c1`
# output 7.01 µM

# input Field request: IC50 | item: `CC(C)([C@H]1C[C@H](NS(=O)(=O)c2ccc(C(F)(F)F)nc2)C1)S(=O)(=O)c1cc(F)cc(C(F)(F)F)c1`
# output 9.99 µM

# input I have this compound here, `O=C(NC[C@H]1C[C@H](S(=O)(=O)c2cc(F)cc(C(F)(F)F)c2)C1)c1ccc(Cl)cn1` , and I need its recorded IC50.
# output 9.86 µM

# input Sample `CC(C)([C@H]1C[C@H](NC(=O)c2ccc(C(F)(F)F)cc2)C1)S(=O)(=O)c1cccc(C(F)(F)F)c1` — what was its IC50?
# output 6.35 µM

# input What measured IC50 goes with `N[C@H]1CCCC[C@@H]1C(=O)NC[C@H]1C[C@H](S(=O)(=O)c2cc(F)cc(C(F)(F)F)c2)C1` ?
# output ≥ 10 µM

====

Kindly state pIC50 for each of the entries shown.
# target_under_test: T-type calcium channel (Homo sapiens, UniProt O95180)
# assay: T-type channel blocking, FLIPR data (Table 6)
# Type: cell-based
# recorded_conditions: CAv3.2, closed state, read-out: CAv3.2 IC50 Closed
Expect pIC50 as a plain number equal to -log10 of the molar concentration.

# input compound: CC(C)(C1CC(CNC(=O)c2ccc(F)c(Cl)c2)C1)S(=O)(=O)c1cccc(C(F)(F)F)c1 (stereo not shown) ; wanted: its pIC50
# output 5.70

# input Item under review: `CC(C)([C@H]1C[C@H](NC(=O)c2cncc(C(F)(F)F)c2)C1)S(=O)(=O)c1cccc(C(F)(F)F)c1` . Reported pIC50?
# output 5.24

# input Looking for the measured pIC50 of `CC(C)([C@H]1C[C@H](Nc2ccnc(C(F)(F)F)n2)C1)S(=O)(=O)c1cc(F)cc(C(F)(F)F)c1` , can you help?
# output 5.62

# input I am curious: what pIC50 value has been reported for `CC(C)(C[C@H]1C[C@@H](NC(=O)c2cnc(C(F)(F)F)nc2)C1)S(=O)(=O)c1cccc(C(F)(F)F)c1` ?
# output 5.06

# input Would you mind telling me what pIC50 value was observed for `CC(C)([C@H]1C[C@H](NC(=O)c2ccc(Cl)c(F)c2)C1)S(=O)(=O)c1cccc(OC(F)(F)F)c1` ?
# output 6.20

# input What pIC50 value was documented for this compound, `CC(C)([C@H]1C[C@H](NS(=O)(=O)c2ccc(Cl)c(F)c2)C1)S(=O)(=O)c1cccc(C(F)(F)F)c1` ?
# output 5.52

====

# target_under_test: T-type calcium channel (Homo sapiens)
# assay: T-type channel blocking, FLIPR data (Table 6)
# Type: cell-based
# recorded_conditions: CAv3.2, inactivated state, read-out: CAv3.2 IC50 Inact.
quantity_kind: pIC50
As a rule, pIC50 stands for the negative log10 of the concentration, concentration in M.

# input For `N[C@H]1CCCC[C@@H]1C(=O)NC[C@H]1C[C@H](S(=O)(=O)c2cccc(OC(F)(F)F)c2)C1` , what is its reported pIC50?
# output 5.00

# input // query pIC50 value for entry CC(C)(C1CC(CNC(=O)c2ccc(Cl)c(OC(F)(F)F)c2)C1)S(=O)(=O)c1cccc(C(F)(F)F)c1 (stereo not drawn)
# output 6.70

# input If you can, please state the reported pIC50 value of `CC(C)([C@H]1C[C@H](NS(=O)(=O)c2ccc(C(F)(F)F)cc2)C1)S(=O)(=O)c1cccc(C(F)(F)F)c1` .
# output 5.82

# input // lookup pIC50 for `N[C@@H]1CCCC[C@H]1C(=O)NC[C@H]1C[C@H](S(=O)(=O)c2cccc(OC(F)(F)F)c2)C1`
# output 5.00

# input Entry `Cn1nc(C(F)(F)F)cc1C(=O)N[C@H]1C[C@H](CC(C)(C)S(=O)(=O)c2cccc(C(F)(F)F)c2)C1` : reported pIC50 = ?
# output 6.17

# input # query: pIC50 of entry N[C@@H]1CCCC[C@@H]1C(=O)NC[C@H]1C[C@H](S(=O)(=O)c2cccc(OC(F)(F)F)c2)C1 (single isomer, unassigned)
# output 5.00
